B1: TRIM35 (parent)
chain: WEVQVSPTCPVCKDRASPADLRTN

# Variants of: B1
# TEST PROTOCOL: protein stability index of a GFP-peptide fusion (GPS, HEK-293T) (PSI 1-6); higher = more stable;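 also: lentivirally expressed fusions sorted by FACS into six bins by GFP to DsRed ratio, PSI derived from sequencing read proportions per bin multiplied by bin number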
# CONDITION NOTES: c terminus: a fixed tail appended
# Lookup of reported protein stability index keyed by entry

# SEQUENCE VARIANT, protein stability index
records = [
    ("W1E", 3.52),
    ("L21K", 3.15),
    ("A19Q", 2.31),
    ("T8S", 2.37),
    ("V3P", 2.49),
    ("D14M", 1.75),
    ("S17Y", 4.01),
    ("W1K", 3.54),
    ("V11P", 3.86),
    ("P10R", 2.42),
    ("S6Y", 2.07),
    ("R22L", 2.45),
    ("E2T", 2.02),
    ("Q4P", 3.58),
    ("L21S", 2.58),
    ("T23P", 2.08),
    ("S6W", 1.94),
    ("A19P", 2.02),
    ("C9Q", 4.56),
    ("R22I", 2.7),
    ("V11C", 1.68),
    ("V5A", 2.15),
]
